Reference source for all entries: PubChem BioAssay AID651717

Measured max activity values are reported for all entries that follow.
assay_notes: Bmi1-luciferase reporter activators in mESC, dose response, esBAF inhibitor project, mouse embryonic stem cells, cherry-pick (AID 651717);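 also: luciferase knocked into Bmi1 locus with EF-1a renilla as cell number control; rising ratio signals esBAF inhibition which derepresses Bmi1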
stated_conditions: firefly/renilla ratio, 24 h, stronger effect = higher value; at 35 µM unless noted
Among all 1,200 compounds or so, about 950 (79%) were called active. So high a share suggests a set chosen from earlier hits. Only a sample is shown. Potency and affinity values are given separately.

Solved entries (count: 8):
>>> print(df.to_string())
                                   molecule                       result
0  Cc1cccc(NC2SC(=O)N(c3ccccc3)C2=O)c1 (centres undefined)             37.5% (inactive)
1  O=C1C2C(c3cccc(/C=C/c4ccccc4)c3)CC=CC2C(c2ccc3ccccc3c2)N1Cc1ccccc1 (centres undefined)             17.2% (inactive)
2  CSc1cccc(NC(=O)c2[nH]c(C)c(C(C)=O)c2C)c1   14.1% [at 8 µM] (inactive)
3  O=S(=O)(/N=C(/Nc1nc2ccccc2s1)c1ccccc1)c1ccccc1  34.6% [at 16 µM] (inactive)
4  C[C@H](CO)N1C[C@H](C)[C@@H](CN(C)S(=O)(=O)c2cn(C)cn2)Oc2c(NC(=O)Nc3ccc4c(c3)OCO4)cccc2C1=O            -22.8% (inactive)
5    CN(c1ccc(O)cc1)S(=O)(=O)c1ccc2ccccc2c1   14.3% [at 8 µM] (inactive)
6  COC(=O)c1ccc(-c2ccc(OC)c([C@H]3[C@H]4C=CC[C@@H](C)[C@@H]4C(=O)N3Cc3ccccc3)c2)cc1            -14.1% (inactive)
7          Clc1ccc(CSc2ncn(-c3ccccc3)n2)cc1               27% (inactive)

// switching to the query molecule
Query: I'd like to know its max activity. The molecule in question is CC1=C(C(=O)OCc2ccccc2)C(c2ccc(Br)cc2)NC(=O)N1CCCCCC(=O)O (centres undefined)
Response: 11.1% [at 16 µM] (inactive)

* * *

assay_notes: Bmi1-luciferase reporter activators in mESC, dose response, esBAF inhibitor project, mouse embryonic stem cells, cherry-pick (AID 651717);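 also: luciferase knocked into Bmi1 locus with EF-1a renilla as cell number control; rising ratio signals esBAF inhibition which derepresses Bmi1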
stated_conditions: firefly/renilla ratio, 24 h, stronger effect = higher value; at 35 µM unless noted
In all, about 1,200 compounds went through this assay and about 950 (79%) were called active. The set was probably picked from earlier hits. The list is a sample of the results. Entries with a potency or affinity are not part of this list.
Measured max activity accompanies every entry in the list below.

                                   molecule  recorded_metric                        result
0                  O=C(NN=C1CCCC1)c1ccccc1O     max activity  17.2% [at 4.2 µM] (inactive)
1  O=C(Nc1ccc(Cc2ccc(NC(=O)Nc3cccnc3)cc2)cc1)Nc1cccnc1     max activity   25.6% [at 16 µM] (inactive)
2  C[C@H]1CN([C@@H](C)CO)C(=O)c2cccc(NC(=O)Nc3ccc(C(F)(F)F)cc3)c2O[C@@H]1CN(C)C     max activity    14.9% [at 8 µM] (inactive)
3    O=C(O)C/C(=C\c1cc(Br)cs1)c1nc2ccccc2o1     max activity              31.8% (inactive)

Query: // query max activity value for entry `Cc1ccc(NC(=O)c2ccccc2F)c(NC(=O)c2ccccc2F)c1`
Response: 39.1% [at 16 µM] (inactive)

Query: Please report the recorded max activity for CCOc1ccc(/C=N/NC(=O)c2ccccc2O)cc1CN1CC2CC(C1)c1cccc(=O)n1C2 (centres undefined) .
Response: 21.1% [at 16 µM] (inactive)

Query: Find the recorded max activity belonging to `CCOC(=O)C1CCN(Cc2nc3ccc([N+](=O)[O-])cc3c(=O)n2-c2ccc(OC)cc2OC)CC1` and report it.
Response: 8.71% [at 4.2 µM] (inactive)

Query: Bench note: what max activity did `O=C(CNc1ccc(Br)cc1)c1ccc(Br)s1` show?
Response: 12.9% [at 4.2 µM] (inactive)

Query: Sample `C[C@@H]1CCCCO[C@@H](CN(C)S(=O)(=O)c2cn(C)cn2)[C@@H](C)CN([C@@H](C)CO)C(=O)c2cc(NC(=O)Nc3ccc4c(c3)OCO4)ccc2O1` — what was its max activity?
Response: 3.24% [at 30 µM] (inactive)
